These entries and their values trace back to patent EP4596580A1.

assayed-target: T1, His-human LIGHT (human)
T1 chain: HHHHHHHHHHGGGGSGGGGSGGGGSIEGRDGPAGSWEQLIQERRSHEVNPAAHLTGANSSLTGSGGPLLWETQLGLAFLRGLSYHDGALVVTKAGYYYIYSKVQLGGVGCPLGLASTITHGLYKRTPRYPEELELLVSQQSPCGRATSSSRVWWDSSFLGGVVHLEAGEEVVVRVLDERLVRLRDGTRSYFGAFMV
method-notes: cell-based or functional assay
measured-property: IC50, LTβR NF-κB luciferase reporter, free LIGHT (nM)

# binder, reported-result
rows = [
    ("hum_LT-m37-16 (antibody, human IgG4, V domains shown, humanized from LT-m37) VH: QVQLVQSGAEVKKPGASVKVSCKASGYSFTGYFINWVRQAPGQGLEWIGRIYPYNVDTFYNQNFKGRVTMTADKSTSTAYMELSSLRSEDTAVYYCGRGTHYYGSSGAMDYWGQGTLVTVSS VL: EIVLTQSPATLSVSPGERATLSCKASQNVGTAVAWYQQKPGQSPRLLIYSASNRYTGIPARFSGSGSGTEFTLTISSLQSEDFAVYYCQQYSSYPYTFGGGTKVEIK", 0.158),
    ("hum_LT-m37-15 (antibody, human IgG4, V domains shown, humanized from LT-m37) VH: QVQLVQSGAEVKKPGASVKVSCKASGYSFTGYFINWVRQAPGQGLEWIGRIYPYNVDTFYNQNFKGRATMTADKSTSTAYMELSSLRSEDTAVYYCGRGTHYYGSSGAMDYWGQGTLVTVSS VL: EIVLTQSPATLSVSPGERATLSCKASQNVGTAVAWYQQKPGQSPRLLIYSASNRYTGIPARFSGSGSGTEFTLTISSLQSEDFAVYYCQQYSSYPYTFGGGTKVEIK", 0.219),
    ("hum_LT-m37-13 (antibody, human IgG4, V domains shown, humanized from LT-m37) VH: QVQLVQSGAEVKKPGASVKVSCKASGYSFTGYFINWVRQAPGQGLEWIGRIYPYNVDTFYNQNFKGRVTMTADKSTSTAYMELSSLRSEDTAVYYCGRGTHYYGSSGAMDYWGQGTLVTVSS VL: EIVLTQSPATLSVSPGERATLSCKASQNVGTAVAWYQQKPGQSPRLLIYSASNRYTGIPARFSGSGSGTEFTLTISSLQSEDFAVYFCQQYSSYPYTFGGGTKVEIK", 0.227),
    ("hum_LT-m37-14 (antibody, human IgG4, V domains shown, humanized from LT-m37) VH: QVQLVQSGAEVKKPGASVKVSCKASGYSFTGYFINWVRQAPGQSLEWIGRIYPYNVDTFYNQNFKGRATLTADKSTSTAYMELSSLRSEDTAVYYCGRGTHYYGSSGAMDYWGQGTLVTVSS VL: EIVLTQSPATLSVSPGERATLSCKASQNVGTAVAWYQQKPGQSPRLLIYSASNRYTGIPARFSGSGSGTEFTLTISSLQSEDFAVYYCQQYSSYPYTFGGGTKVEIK", 0.182),
    ("LT-m37 (antibody, human IgG4, V domains shown) VH: QVQLKQSGAELVRPGTSVKVSCKASGYSFTGYFINWVKQSHGKSLEWIGRIYPYNVNTFYNQNFKGRATLTADKSSSTAHMELLSLTSEDSAVYYCGRGTHYYGSSGAMDYWGQGTSVTVSS VL: DILLTQSHKFMSTSVGDRVSITCKASQNVGTAVAWYQQKPGQSPKLLIYSASNRYTGVPDRFTGSGSGTDFTLTISNMQSEDLADYFCQQYSSYPYTFGGGTKLEIK", 0.257),
]
